# measured-on: HIV-1 reverse transcriptase (RT) (Human immunodeficiency virus type 1 group M subtype B, UniProt P04585)
# Construct: Recombinant HIV-1 reverse transcriptase (RT) was obtained from Worthington (Freehold, N.J.); purchased Worthington (Freehold, N.J.)
# test-protocol: Time-dependent (irreversible) inhibition of HIV-1 reverse transcriptase after preincubation
# Assay type: biochemical
# measurement-conditions: preincubation with TTP, experiment of FIG. 6, Kitz-Wilson
reported-property: Ki

molecule="Cc1c(-c2cnccn2)ssc1=S [compound 11]" experimental_result="15.6 µM"

###

# Test system: HIV-1 (HTLVIIIB)
# test-protocol: microbe, parasite or virus in culture
# Assay type: cell-based
# measurement-conditions: Human immunodeficiency virus 1, H9, read-out: IC50 HIV-1 replication as determined by IFA
reported-property: IC50 (µM)

input_smiles=Cc1c(-c2cnccn2)ssc1=S result_unit=µM experimental_result=9.7

###

# System: HIV-1 (HTLVIIIB)
# test-protocol: microbe, parasite or virus in culture
# Type: cell-based
# measurement-conditions: Human immunodeficiency virus 1; N=5 independent experiments, IFA, H9 cells; read-out: IC50 HIV-1 replication
pIC50: −log10 of the molar value.
reported-property: pIC50

input_smiles=Cc1c(-c2cccs2)ssc1=S measured_on="HIV-1 (HTLVIIIB)" reported_property=pIC50 experimental_result=5.74

###

# Tested on: HIV-1 (HTLVIIIB)
# test-protocol: microbe, parasite or virus in culture
# Type: cell-based
# measurement-conditions: Human immunodeficiency virus 1, H9, read-out: IC50 HIV-1 replication (Exp 2)
pIC50: −log10 of the molar value.
reported-property: pIC50

input_smiles=Cc1c(-c2cnccn2)ssc1=S experimental_result=5.52

###

# measured-on: HIV-1 reverse transcriptase (RT) (Human immunodeficiency virus type 1 group M subtype B, UniProt P04585)
# Construct: Recombinant HIV-1 reverse transcriptase (RT) was obtained from Worthington (Freehold, N.J.); purchased Worthington (Freehold, N.J.)
# test-protocol: Inhibition of recombinant HIV-1 reverse transcriptase (TTP incorporation)
# Type: biochemical
# measurement-conditions: N=2 experiments, Segal transformation of Dixon plots; read-out: Ki with respect to TTP
pKi: −log10 of the molar value.
reported-property: pKi

compound="Cc1c(-c2cnccn2)ssc1=S [compound 11]" reported_property=pKi experimental_result=3.74
